species on record: Rattus norvegicus; experiment: DrugMatrix - Regimen: Daily Repeat; format: toxicity, organism-based, Sprague-Dawley; design: regimen Daily Repeat, gender Male, age 6-8 weeks; details: in vivo, po, 0 mg/kg, 72 h, tissue Plasma, route oral GAVAGE, dose level Control, time 3 day, […]
Can you tell me POTASSIUM for the items I'm about to list?
Unit MEQ/L implied. Number only.

Task item: Dear colleague, I am looking for the recorded POTASSIUM of the following compound: CC(C)(c1ccc(O)cc1)c1ccc(O)cc1 [BISPHENOL A]
Reply: 5.16

Task item: And for CCC(C)(C)C(=O)O[C@H]1C[C@@H](C)C=C2C=C[C@H](C)[C@H](CC[C@@H]3C[C@@H](O)CC(=O)O3)[C@H]21 [SIMVASTATIN] ?
Reply: 5.03

Task item: And for O=C(Nc1ccc(Cl)c(Cl)c1)c1cc(Cl)cc(Cl)c1O [3,3',4',5-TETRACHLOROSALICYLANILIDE] ?
Reply: 5.91

Task item: And for CS(=O)(=O)c1ccc(C2=C(c3ccccc3)C(=O)OC2)cc1 [ROFECOXIB] ?
Reply: 5.78

* * *

organism: Rattus norvegicus; test: DrugMatrix - Regimen: Daily Repeat; assay type: toxicity, organism-based, Sprague-Dawley; parameters: regimen Daily Repeat, gender Male, age 6-8 weeks; conditions: in vivo, po, 0 mg/kg, 72 h, tissue Plasma, route oral GAVAGE, dose level Control, time 3 day, vehicle 100 % WATER
Measured parameter: SODIUM (MEQ/L)
Unit MEQ/L implied. Number only.

Task item: Dear colleague, I am looking for the recorded SODIUM of the following compound: CCN(CC)C(=S)SSC(=S)N(CC)CC
Reply: 145.2

Task item: And for Cc1cn([C@H]2C=C[C@@H](CO)O2)c(=O)[nH]c1=O ?
Reply: 144.87

Task item: And for CC(Cl)(Cl)Cl ?
Reply: 144.43

Task item: And for NN [HYDRAZINE] ?
Reply: 140.5

Task item: And for C1CCN2C[C@@H]3C[C@@H](CN4CCCC[C@@H]34)[C@H]2C1 ?
Reply: 144.43

Task item: And for C[N+](C)(C)CCOC(N)=O.[Cl-] ?
Reply: 144.87

Task item: And for CN1C(=O)OC(C)(C)C1=O ?
Reply: 148.5

Task item: And for Cc1cc(C(C)(C)C)c(O)c(C)c1CC1=NCCN1 ?
Reply: 142.88

Task item: And for CCC1(c2ccccc2)C(=O)NC(=O)NC1=O ?
Reply: 144.12

* * *

Can you tell me BLOOD UREA NITROGEN for the items I'm about to list?
species: Rattus norvegicus; test: DrugMatrix - Regimen: Daily Repeat; type: toxicity, organism-based, Sprague-Dawley; parameters: regimen Daily Repeat, gender Male, age 6-8 weeks; settings: in vivo, po, 1500 mg/kg, 120 h, tissue Plasma, route oral GAVAGE, dose level High, time 5 day, vehicle .5 % CMC
Unit mg/dL implied. Number only.

Task item: Dear colleague, I am looking for the recorded BLOOD UREA NITROGEN of the following compound: Cc1ccc(S(=O)(=O)NC(=O)NN2CCCCCC2)cc1 [TOLAZAMIDE]
Reply: 19

Task item: And for CC[C@H]1OC(=O)[C@H](C)[C@@H](O[C@H]2C[C@@](C)(OC)[C@@H](O)[C@H](C)O2)[C@H](C)[C@@H](O[C@@H]2O[C@H](C)C[C@H](N(C)C)[C@H]2O)[C@](C)(O)C[C@@H](C)C(=O)[C@H](C)[C@@H](O)[C@]1(C)O ?
Reply: 13.67

Task item: And for COc1ccc(Cl)cc1C(=O)NCCc1ccc(S(=O)(=O)NC(=O)NC2CCCCC2)cc1 [GLYBURIDE] ?
Reply: 12.67

Task item: And for COc1cc(/C=C/C(=O)O)ccc1O [FERULATE] ?
Reply: 16.33

Task item: And for O=C(O)CCc1nc(-c2ccccc2)c(-c2ccccc2)o1 ?
Reply: 17.67

* * *

Can you tell me BLOOD UREA NITROGEN for the items I'm about to list?
organism: Rattus norvegicus; test: DrugMatrix - Regimen: Daily Repeat; type: toxicity, organism-based, Sprague-Dawley; set-up: regimen Daily Repeat, gender Male, age 6-8 weeks; details: in vivo, po, 0 mg/kg, 72 h, tissue Plasma, route oral GAVAGE, dose level Control, time 3 day, vehicle .5 % CMC
Unit mg/dL implied. Number only.

Task item: Dear colleague, I am looking for the recorded BLOOD UREA NITROGEN of the following compound: NCC(CC(=O)O)c1ccc(Cl)cc1 (stereo not drawn)
Reply: 17.33

Task item: And for NC(=O)NC(=O)Cc1ccccc1 [PHENACEMIDE] ?
Reply: 14.67

Task item: And for O=C(O)CCc1nc(-c2ccccc2)c(-c2ccccc2)o1 ?
Reply: 15

* * *

species: Rattus norvegicus; experiment: DrugMatrix - Regimen: Daily Repeat; assay type: toxicity, organism-based, Sprague-Dawley; design: regimen Daily Repeat, gender Male, age 6-8 weeks; settings: in vivo, po, 0 mg/kg, 120 h, tissue Blood, route oral GAVAGE, dose level Control, time 5 day, vehicle .5 % CMC
Can you tell me MEAN CORPUSCULAR HEMOGLOBIN for the items I'm about to list?
Unit pg implied. Number only.

Task item: Dear colleague, I am looking for the recorded MEAN CORPUSCULAR HEMOGLOBIN of the following molecule: CC(C)Cc1ccc([C@H](C)C(=O)O)cc1
Reply: 20.1

Task item: And for O=C1c2ccccc2C(=O)C1c1ccccc1 ?
Reply: 19.82

Task item: And for COc1cc(/C=C/C(=O)O)ccc1O [FERULATE] ?
Reply: 24.12

* * *

species on record: Rattus norvegicus; assay: DrugMatrix - Regimen: Daily Repeat; format: toxicity, organism-based, Sprague-Dawley; set-up: regimen Daily Repeat, gender Male, age 6-8 weeks; conditions: in vivo, po, 0 mg/kg, 72 h, tissue Blood, route oral GAVAGE, dose level Control, time 3 day, vehicle .5 % CMC
Measured parameter: ABSOLUTE SEGMENTED NEUTROPHIL (CELLS/uL)
Unit CELLS/uL implied. Number only.

Task item: Dear colleague, I am looking for the recorded ABSOLUTE SEGMENTED NEUTROPHIL of the following molecule: O=C(O)CCc1nc(-c2ccccc2)c(-c2ccccc2)o1
Reply: 970

Task item: And for CCN1CCCC1CNC(=O)c1cc(S(N)(=O)=O)ccc1OC (configuration not stated) [SULPIRIDE] ?
Reply: 970

Task item: And for CC(=O)Nc1ccc2c(c1)Cc1ccccc1-2 ?
Reply: 1121.33

Task item: And for CC(C)(C#N)c1cc(Cn2cncn2)cc(C(C)(C)C#N)c1 ?
Reply: 1401

Task item: And for NC(=O)NC(=O)Cc1ccccc1 [PHENACEMIDE] ?
Reply: 1575

Task item: And for CCOc1cc(N)c(Cl)cc1C(=O)NCC1CN(Cc2ccc(F)cc2)CCO1 (configuration not stated) [MOSAPRIDE] ?
Reply: 1121.33

Task item: And for NCC(CC(=O)O)c1ccc(Cl)cc1 (configuration not stated) ?
Reply: 1121.33

Task item: And for Cl.NC[C@H]1CC[C@H](C(=O)Oc2ccc(CCC(=O)O)cc2)CC1 [CETRAXATE HYDROCHLORIDE] ?
Reply: 1024.17

Task item: And for COc1cc(/C=C/C(=O)O)ccc1O [FERULATE] ?
Reply: 1024.17

Task item: And for Cc1cc2c(s1)Nc1ccccc1N=C2N1CCN(C)CC1 ?
Reply: 1443

Task item: And for CN(C)CCOC(c1ccccc1)c1ccccc1.Cn1c(=O)c2[nH]c(Cl)nc2n(C)c1=O [DIMENHYDRINATE] ?
Reply: 1932.67

Task item: And for NC(=O)CN1CCCC1=O ?
Reply: 1192.33

* * *

organism: Rattus norvegicus; experiment: DrugMatrix - Regimen: Daily Repeat; format: toxicity, organism-based, Sprague-Dawley; set-up: regimen Daily Repeat, gender Male, age 6-8 weeks; conditions: in vivo, po, 1500 mg/kg, 120 h, tissue Plasma, route oral GAVAGE, dose level High, time 5 day, vehicle .5 % CMC
Measured parameter: PHOSPHORUS (mg/dL)
Unit mg/dL implied. Number only.

Task item: Dear colleague, I am looking for the recorded PHOSPHORUS of the following compound: COc1cc(/C=C/C(=O)O)ccc1O [FERULATE]
Reply: 11.4

Task item: And for O=C(O)CCc1nc(-c2ccccc2)c(-c2ccccc2)o1 ?
Reply: 11.23

Task item: And for COc1ccc(Cl)cc1C(=O)NCCc1ccc(S(=O)(=O)NC(=O)NC2CCCCC2)cc1 [GLYBURIDE] ?
Reply: 11.5

Task item: And for CC[C@H]1OC(=O)[C@H](C)[C@@H](O[C@H]2C[C@@](C)(OC)[C@@H](O)[C@H](C)O2)[C@H](C)[C@@H](O[C@@H]2O[C@H](C)C[C@H](N(C)C)[C@H]2O)[C@](C)(O)C[C@@H](C)C(=O)[C@H](C)[C@@H](O)[C@]1(C)O ?
Reply: 9.97

Task item: And for Cc1ccc(S(=O)(=O)NC(=O)NN2CCCCCC2)cc1 [TOLAZAMIDE] ?
Reply: 13.07
